# Tested on: U-251
# METHOD_DESCRIPTION: NCI tumour cell line growth inhibition, 48 h
Calls of active or inactive are those of the source. Rule as the data show it: active = GI50 up to about 1.1 µM and inactive = higher.
Hello, when you answer, please use one of the following outcomes: active, inactive

# count of solved cases: 6
query: State the result this test recorded for `Oc1cccc2cc(Br)cnc12` .
result: inactive

query: Please answer likewise for `O=C1/C(=C/c2ccc(Cl)cc2)NC(=S)N1CN1CCCCC1`
result: inactive

query: Would you kindly repeat that for CCCCN1C(=O)C2c3[nH]c4ccccc4c3C3CCCCC3C2C1=O.CCCCN1C(=O)C2c3[nH]c4ccccc4c3[C@@H]3CCCCC3C2C1=O (centres undefined) ?
result: inactive

query: Now give it for COc1ccc(C2SC(=N)Nc3c2c(C)nn3C(=O)c2ccncc2)cc1 (centres undefined) too.
result: inactive

query: What about `CCc1ccccc1NC(=O)/C(CC(=O)c1c(C)[n+]([O-])c2ccccc2[n+]1[O-])=N\NS(=O)(=O)c1ccc(C)cc1` ?
result: inactive

query: Proceed to `N#Cc1c(NC(=S)Nc2ccc(Cl)cc2)sc2c1CCN(N1CCc3c(sc(NC(=S)Nc4ccc(Cl)cc4)c3C#N)C1)C2`
result: inactive

Further cases:
query: Can you look up the reported call for `COC(=O)c1c(OC)cccc1C(=O)O` for me?
result: inactive

query: Another: CC(C)CCC1CC2C(=O)N(c3ccccc3)C(=O)C2c2[nH]c3ccccc3c21 (centres undefined)
result: active

query: N=C(N)NCCCC(NC(=O)OCCCCn1ccc(N)nc1=O)C(=O)O (centres undefined) , same question.
result: inactive

query: Next record, please: `CCCNCc1nc2ccc(Br)cc2c(=O)n1CCC`
result: inactive

query: Try the compound O=C(NC(Cc1c[nH]cn1)C(=O)N1CCCC1)C1CCCC1 (centres undefined)
result: inactive

query: Another compound: `CCCCC/C(=N\c1[nH]cnc1C(N)=O)OCC`
result: inactive

query: Consider next the compound CC1CCC2(C(=O)O)CCC3(C)C(=CCC4C5(C)CC(O)C(O)C(C)(CO)C5C(O)CC43C)C2C1C (centres undefined) in the same way.
result: inactive
